Test system: LOC_OS07G07230-cb001
assay-method-text: thermal shift delta Tm vs DMSO control; higher = stronger stabilization (binding);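 further: purified Escherichia coli-expressed rice kinase domain construct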
condition-description: 12.5 µM; protein concentration 2 µM
Structures can show the parent of a compound that is named as a salt.
I would appreciate it if you labelled entries criterion met when thermal shift delta Tm is -0.2 °C or higher, otherwise criterion not met.

Enquiry: Assess whether reported thermal shift delta Tm for `COc1ccc(C(=O)Nc2sc3c(c2C(N)=O)CCCC3)cc1OC` sits at -0.2 °C or higher.
Return: criterion met

Continuing:
Enquiry: hey, is thermal shift delta Tm for this one >= -0.2 °C? `CO[C@H]1C[C@@H]2CC[C@@H](C)[C@@](O)(O2)C(=O)C(=O)N2CCCC[C@H]2C(=O)O[C@H]([C@H](C)C[C@@H]2CC[C@@H](OC(=O)C(C)(CO)CO)[C@H](OC)C2)CC(=O)[C@H](C)/C=C(\C)[C@@H](O)[C@@H](OC)C(=O)[C@H](C)C[C@H](C)/C=C/C=C/C=C/1C`
Return: criterion met

Enquiry: Dear colleague, could you confirm whether Cc1cc(O)c(-c2ccc([C@@H](C)CN)cc2)c2c1[nH]c(=O)c1sccc12 [OTS514 hydrochloride] has thermal shift delta Tm at or above -0.2 °C?
Return: criterion met

Enquiry: Assess whether reported thermal shift delta Tm for `NCC(=O)Nc1ccc(-n2nc(C(F)(F)F)cc2-c2ccc3c(ccc4ccccc43)c2)cc1` sits at -0.2 °C or higher.
Return: criterion met

Enquiry: Decide: thermal shift delta Tm of `COc1ccc(COc2ccc(Cc3cnc(N)nc3N)cc2OC)cc1` >= -0.2 °C?
Return: criterion not met

Enquiry: Determine whether measured thermal shift delta Tm meets or exceeds -0.2 °C for CCS(=O)(=O)Nc1ccc2c(c1)/C(=C(/Nc1ccc(CN3CCCCC3)cc1)c1ccccc1)C(=O)N2 [Hesperadin]
Return: criterion met

Enquiry: Exam item: decide whether the reported thermal shift delta Tm for OC(c1cc(-c2ccc(Cl)cc2)nc2ccccc12)C1CCCCN1 (configuration not stated) [Vacquinol-1] is at least -0.2 °C.
Return: criterion not met

###

Test system: LOC_OS01G02750-cb003
assay-method-text: thermal shift delta Tm vs DMSO control; higher = stronger stabilization (binding)
condition-description: 12.5 µM; protein concentration 2 µM
measurement-label: thermal shift delta Tm (°C)
Provide the reading as a plain figure in °C.

Per the record, CN1CCN(c2ccc(C(=O)Nc3n[nH]c4ccc(Cc5cc(F)cc(F)c5)cc34)c(NC3CCOCC3)c2)CC1 [Entrectinib (RXDX-101)] has thermal shift delta Tm of 2.9

Record `COc1cc2nccc(Oc3ccc(NC(=O)Nc4cc(C)on4)c(Cl)c3)c2cc1OC` . Reported thermal shift delta Tm: 1.12

The compound identified as `CCn1c(-c2nonc2N)nc2c(C#CC(C)(C)O)ncc(OC[C@H]3CCCNC3)c21` registered its thermal shift delta Tm at 0.87

More entries:
According to the records, this compound `CC(C)(C)c1ccc(S(=O)(=O)/C=C/C#N)cc1` displays thermal shift delta Tm of -1.97

Item: `COc1cc2ncnc(Oc3cccc(NC(=O)Nc4cc(C(C)(C)C(F)(F)F)on4)c3)c2cc1OC` | thermal shift delta Tm: 1.07

So for `CCOC(=O)c1cnc2ccc(-c3cncc(NS(=O)(=O)c4ccccc4)c3)cn12` , the logged thermal shift delta Tm turned out to be 2.3

Lab note: measured thermal shift delta Tm of `Cc1cc(Nc2cc(N3CCN(C)CC3)nc(/C=C/c3ccccc3)n2)n[nH]1` was 1.8

// thermal shift delta Tm value for `O=c1nc(N2CCOCC2)oc2c(-c3cccc4c3sc3ccccc34)cccc12` : -0.86

###

// reported thermal shift delta Tm per item
System: LOC_OS01G01410-cb001
assay-method-text: thermal shift delta Tm vs DMSO control; higher = stronger stabilization (binding)
condition-description: 12.5 µM; protein concentration 2 µM
Quick reminder: number only, in °C, skip the unit.

A selection of reference data follows.
Record O=c1sn(-c2cccc3ccccc23)c(=O)n1Cc1ccccc1 [Tideglusib] / LOC_OS01G01410-cb001, thermal shift delta Tm recorded as 0.61

Tested on LOC_OS01G01410-cb001, the item `Cn1cc(-c2ccc3nnc(Sc4ccc5ncccc5c4)n3n2)cn1` showed thermal shift delta Tm equal to 0.49

Readout thermal shift delta Tm for `Nc1ccc(C(=O)Nc2cccc(-c3nc(N4CCOCC4)c4oc5ncccc5c4n3)c2)cn1` , test system LOC_OS01G01410-cb001, was 1.9

Record `C=CC(=O)Nc1ccc2ncnc(Nc3cccc(Br)c3)c2c1` / LOC_OS01G01410-cb001, thermal shift delta Tm recorded as 0.7

Log: LOC_OS01G01410-cb001, molecule `CCN1CCN(Cc2ccc(-c3cc4c(N[C@H](C)c5ccccc5)ncnc4[nH]3)cc2)CC1` , thermal shift delta Tm = 3.01

Next:
Lab entry: LOC_OS01G01410-cb001 assay, molecule C#Cc1cccc(Nc2ncnc3cc(OCCOC)c(OCCOC)cc23)c1 [Erlotinib] , thermal shift delta Tm = 0.56

###

Test system: LOC_OS02G07810-cb001
assay-method-text: thermal shift delta Tm vs DMSO control; higher = stronger stabilization (binding)
condition-description: 12.5 µM; protein concentration 2 µM
Counter-ions that a name gives are not always drawn.
measurement-label: thermal shift delta Tm (°C)
Just the number in °C, nothing appended.

Some compounds with known thermal shift delta Tm results, for comparison:
Recorded result, `N#Cc1cnc(Nc2cc(NC[C@H]3CNCCO3)c(C(F)(F)F)cn2)cn1` , thermal shift delta Tm: 0.2

thermal shift delta Tm in this record for `CNS(=O)(=O)Nc1nccc(Cc2c(C)c3ccc(Oc4ncccn4)cc3oc2=O)c1F` : 1.08

The value of thermal shift delta Tm measured for the compound Cc1ccc(NC(=O)c2ccc(CN3CCN(C)CC3)cc2)cc1Nc1nccc(-c2cccnc2)n1 [Imatinib Mesylate (STI571)] turned out to be 0.51

New cases:
Entry `c1ccc(-c2[nH]ncc2-c2ccnc3ccccc23)nc1` ; thermal shift delta Tm = 0.95

Value of measured thermal shift delta Tm for the entry `Nc1nccc(Oc2ccc(NC(=O)c3c[nH]cc(-c4ccc(F)cc4)c3=O)cc2F)c1Cl` : 1.41

What the record says about O=C(Nc1nccs1)C(c1cc(F)ccc1O)N1Cc2ccccc2C1=O (stereo not drawn) : thermal shift delta Tm is 0.12

`C[C@@H](Oc1cc(-c2cnn(C3CCNCC3)c2)cnc1N)c1c(Cl)ccc(F)c1Cl` yielded thermal shift delta Tm of 0.08

Memo: `CS(=O)(=O)N1CCc2c(-c3cnc(N)nc3)nc(N3CCOCC3)nc21` , reported thermal shift delta Tm: 1.06

Per the record, N#C/C(=C\c1ccc(O)c(O)c1)C(=O)NCc1ccccc1 [AG-490 (Tyrphostin B42)] has thermal shift delta Tm of 1.89

Measured thermal shift delta Tm, `Cc1nc(Nc2cnn(C3CCNCC3)c2)nc2c1N(C)C(=O)c1cc3ccccc3cc1N2C` : 0.09

// field: thermal shift delta Tm; key: `Cc1ccc2nc(NCCN)c3ncc(C)n3c2c1` ; value = 0.4

Entry under test: `CCN(CC)CCCCNc1ncc2cc(-c3cc(OC)cc(OC)c3)c(NC(=O)NC(C)(C)C)nc2n1` . Its thermal shift delta Tm was 0.72

Briefly, thermal shift delta Tm measured for CC(C)n1nc(-c2cc3cc(O)ccc3[nH]2)c2c(N)ncnc21 [Torkinib (PP242)] : 0.64

Item: `O=C(NCCCNc1nc(Nc2cccc(NC(=O)N3CCCC3)c2)ncc1I)c1cccs1` | thermal shift delta Tm: 1.11

compound `Cc1nc(Nc2n[nH]c3c2CN(C(=O)N[C@H](CN(C)C)c2ccccc2)C3(C)C)c2sccc2n1` , thermal shift delta Tm observed: 0.99

// field: thermal shift delta Tm; key: C=CC(=O)Nc1cccc(Nc2nc(Nc3ccc(N4CCN(C(C)=O)CC4)cc3OC)ncc2C(F)(F)F)c1 [Rociletinib (CO-1686, AVL-301)] ; value = 1

The reported thermal shift delta Tm of the compound `CCn1c(=O)c(-c2ccc(Cl)cc2Cl)cc2cnc(Nc3ccc(N4CCNCC4)c(F)c3)nc21` was 0.21

Short answer for O=C(Nc1cnn2ccc(N3CCC[C@@H]3c3cc(F)ccc3F)nc12)N1CC[C@H](O)C1 [Larotrectinib (LOXO-101) sulfate] : thermal shift delta Tm was 0.18

###

Test system: LOC_OS02G14120-cb001
assay-method-text: thermal shift delta Tm vs DMSO control; higher = stronger stabilization (binding)
condition-description: 12.5 µM; protein concentration 2 µM
We use 2 °C as the dividing line for thermal shift delta Tm: on or above the line is t, below is f.

Worked examples follow.
Enquiry: For this compound, is measured thermal shift delta Tm 2 °C or higher? `Cc1nc(Nc2n[nH]c3c2CN(C(=O)N[C@H](CN(C)C)c2ccccc2)C3(C)C)c2sccc2n1`
Return: f

Enquiry: Say whether `COC(=O)[C@]12CCC(C)(C)C[C@H]1[C@H]1C(=O)C=C3[C@@]4(C)C=C(C#N)C(=O)C(C)(C)[C@@H]4CC[C@@]3(C)[C@]1(C)CC2` shows thermal shift delta Tm of 2 °C or more.
Return: f

Enquiry: Please check the record `CCOc1cc(N2CCC(O)CC2)ccc1Nc1ncc2c(n1)N(C)c1ccccc1C(=O)N2C` and state if its thermal shift delta Tm is at or above 2 °C.
Return: f

Further cases:
Enquiry: Determine whether measured thermal shift delta Tm meets or exceeds 2 °C for `COc1ccc(COc2ccc(Cc3cnc(N)nc3N)cc2OC)cc1`
Return: f

Enquiry: Hi, just wondering whether COc1cc2c(c(OC)c1OC)-c1c(cc3c(c1OC)OCO3)CC(C)C(C)C2 (stereo not given) [Schisandrin B (Sch B)] shows thermal shift delta Tm of 2 °C or higher.
Return: f

Enquiry: thermal shift delta Tm >= 2 °C for COc1cc(F)c(F)c(Nc2ccc(I)cc2F)c1NS(=O)(=O)C1(C[C@H](O)CO)CC1 [Refametinib (RDEA119, Bay 86-9766)] ?
Return: f

Enquiry: Exam item: decide whether the reported thermal shift delta Tm for `CC#CC(=O)N1CCC[C@H]1c1nc(-c2ccc(C(=O)Nc3ccccn3)cc2)c2c(N)nccn12` is at least 2 °C.
Return: f

Enquiry: Hello, I need to know if `CC(C)CC(=O)Nc1n[nH]c2c1CN(C(=O)C1CCN(C)CC1)C2(C)C` has measured thermal shift delta Tm not below 2 °C. Thanks!
Return: f

Enquiry: Kindly determine if thermal shift delta Tm recorded for `CC(C)(C)c1cc(/C=C(\C#N)C(N)=S)cc(C(C)(C)C)c1O` is above or exactly 2 °C.
Return: t

Enquiry: Can `Cn1ncc(Cl)c1-c1cc(C(=O)N[C@H](CN)Cc2cccc(F)c2)sc1Cl` be said to have thermal shift delta Tm at or above 2 °C?
Return: f

Enquiry: Could you verify whether the entry `Cc1ccc(S(=O)(=O)/C=C/C#N)cc1` shows thermal shift delta Tm of no less than 2 °C?
Return: f
